biological target: Receptor tyrosine-protein kinase erbB-2 (Homo sapiens); test: reducers of endogenous Her2 protein level, primary screen, SKBR3 breast tumor cells, AlphaScreen, ATP viability (AID 461); settings: 18-24 h, at 10 µM, hits give low values;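 note: lower value means less Her2 protein in the cells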
Peptide text beside a SMILES is read from it. * marks the point of attachment. Boc = CC(C)(C)OC(=O)*
Endpoint name: Her2 level (%)
Give bare numbers, in %.

Worked examples follow.
| Compound | Her2 level / % |
| --- | --- |
| COc1ccccc1NC(=O)c1ccc(COc2ccccc2OC)o1 | 97 |
| COc1cccc(OC)c1C(=O)N1CCN(S(=O)(=O)c2ccc(C)cc2)CC1 | 108 |
| CS(=O)(=O)N1CCCC(C(=O)NCCCN2CCC(Cc3ccccc3)CC2)C1 (stereo not given) | 115 |
| O=C1CC(N2CCN(c3cccc(C(F)(F)F)c3)CC2)C(=O)N1c1ccccc1 (stereo not given) | 112 |
| Cc1ccc(C)c(N(CC(=O)NCc2ccco2)C(=O)CCC(=O)Nc2ccccn2)c1 | 92 |
| CC(NC(=O)OC(C)(C)C)C(=O)N1CCCC1C(=O)NC(Cc1ccccc1)C(N)=O (stereo not drawn) (Boc-Ala-Pro-Phe-NH2; configuration not given here) | 94 |
| O=C1C2CCCN2C(c2ccc(Cl)cc2)N1c1nccs1 (stereo not given) | 77 |
| COc1ccc(N=c2scc(-c3ccc(S(=O)(=O)N4CCOCC4)cc3)n2CCCO)cc1 | 80.5 |

Report Her2 level for every entry below.
1. O=C(CNS(=O)(=O)c1ccc(Br)s1)N1CCN(c2ncccn2)CC1
2. Cc1n[nH]c(C)c1S(=O)(=O)N1CCN(c2ccccn2)CC1

[116, 108]
